Target: Peroxisome proliferator-activated receptor gamma (Homo sapiens)
Assay: Binding affinity to human PPARgamma LBD expressed in Escherichia coli BL21 DE3 assessed as melting temperature at 33 uM after 2 hrs using SYPRO orange dye
Below is a list of entries, each paired with its recorded Tm value.

- compound-smiles: "O=C(O)c1ccc(-n2nnnc2SCc2ccccc2Br)cc1"
  Tm: "46 °C"

Name the recorded Tm of the molecule listed here: Cc1c(/C=C2\SC(Nc3cccc(C(=O)O)c3)=NC2=O)c2ccccc2n1C
46 °C

Provide measured Tm value, entry: O=C(Nc1ccc(C(=O)O)cc1)/C(=C\c1ccc2c(c1)OCO2)NC(=O)c1ccc(Br)o1
46 °C
